assay_overview: chemical genetic growth profiling, strain panel (AID 1159580);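 note: tested at 20 µM; growth read once vehicle control cultures reached saturation at 30 °C; 1 = growth at the plate median or of vehicle wells; lower values mean less growth of the strain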
condition_summary: S. cerevisiae deletion strains, growth OD, locus YJL134W, strain LCB3, active compounds read low
In all, about 5,500 compounds went through this assay and about 2,000 (36%) were called active. Roughly 18% stayed inconclusive and do not appear here. The list shows a part of the results.
# Lookup of reported normalized growth keyed by entry

> print(dat)
                                   compound        test.value
1             CC(=O)N[C@@H](CCC(=O)O)C(=O)O   1.01 (inactive)
2                            NC1(C(=O)O)CC1      1 (inactive)
3                FC(F)(F)c1cccc(N2CCNCC2)c1      1 (inactive)
4  N[C@@H](C(=O)O)[C@@H](O)[C@H](O)[C@H](O)CO   1.01 (inactive)
5  COc1ccc2c(c1)OCC(Cc1ccc(OC)c(OC)c1)C2=O (stereo unspecified)  0.994 (inactive)

The measured normalized growth associated with "NC1(C(=O)O)CCC1" reads 0.997 (inactive)

Short answer for COC1=CC(=O)OC(CCc2ccc(OC)c(OC)c2)C1 (stereo unspecified) : normalized growth was 1 (inactive)

Record summary for NC(C(=O)O)C(O)C(=O)O (stereo unspecified) : reported normalized growth = 1.01 (inactive)

Lab note: "NC(N)=NCCCCN=C(N)N" gave normalized growth of 0.989 (inactive)

Lookup result for C=C[C@@]1(C)CC(=O)[C@@]2(O)[C@](C)(O1)[C@@H](OC(C)=O)[C@@H](O)C1C(C)(C)CC[C@H](O)[C@@]12C (stereo partly specified) ; measured normalized growth: 0.984 (inactive)

normalized growth reported for this compound CC(=O)OCC(=O)[C@@]1(O)CCC2C3CCC4=CC(=O)C=CC4(C)C3[C@@H](O)C[C@@]21C (stereo partly specified) : 1.01 (inactive)

GET /value?item= "COc1c(C)c2c(c(O)c1C/C=C(\C)CCC(=O)O)C(=O)OC2" &field=normalized growth returns 0.976 (inactive)

Data origin: PubChem BioAssay AID1159580
